# Test system: B16
# assay.name: Cytotoxicity against mouse B16 cells after 48 hrs by MTT assay
# Assay type: functional, cell-based
# test.context: B16, 48 h
measure.name: IC50 (µM)
# number only, unit µM dropped from output

                                 compound  measure_name  measured_value
0  O=c1[nH]cc(F)c(=O)[nH]1 [FLUOROURACIL]          IC50             4.2

What is its IC50 for B16? Entry: `COc1cc(-n2c(=O)n(-c3nc4ccc([N+](=O)[O-])cc4s3)c(=O)c3cccnc32)cc(OC)c1OC`
19.9
